Sourced from PubChem BioAssay AID1159580

# assay protocol: chemical genetic growth profiling, strain panel (AID 1159580);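 note: tested at 20 µM; growth read once vehicle control cultures reached saturation at 30 °C; 1 = growth at the plate median or of vehicle wells; lower values mean less growth of the strain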
# experimental conditions: S. cerevisiae deletion strains, growth OD, locus YCL069W, strain vba3, hits give low values
Screen size: about 5,500 compounds; about 2,000 (36%) were called active. Inconclusive results (about 18%) are left out. The list shows a part of the results.
property: normalized growth

- CCC(N)C(O)c1ccc(O)c(O)c1 (centres undefined): 1
- CCC(c1ccc(O)cc1)C(CC)c1ccc(O)cc1 (centres undefined): 0.951
- COc1ccc(-c2cc(=O)c3c(O)cc(O[C@H]4O[C@H](CO[C@@H]5O[C@@H](C)[C@H](O)[C@@H](O)[C@H]5O)[C@@H](O)[C@H](O)[C@H]4O)cc3o2)cc1: 0.968
- COc1ccc(-c2oc3c(CC=C(C)C)c(O[C@@H]4O[C@H](CO)[C@@H](O)[C@H](O)[C@H]4O)cc(O)c3c(=O)c2O[C@@H]2O[C@@H](C)[C@H](O)[C@@H](O)[C@H]2O)cc1: 1.02
- COc1cc(OC)c2c(=O)c(OC)c(-c3ccc(OC)c(OC)c3)oc2c1: 1.02
- COc1cc(OC)c2c(=O)c(O)c(-c3ccc(OC)c(OC)c3)oc2c1: 0.973
- CC/C(=C(/CC)c1ccc(O)cc1)c1ccc(O)cc1: 0.987
- NC(=O)c1ncn([C@@H]2O[C@H](CO)[C@@H](O)[C@H]2O)n1: 0.996
- CCCCCCCCCCCC1=C(O)C(=O)C=C(O)C1=O: 0.538

###

# assay protocol: chemical genetic growth profiling, strain panel (AID 1159580);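 note: tested at 20 µM; growth read once vehicle control cultures reached saturation at 30 °C; 1 = growth at the plate median or of vehicle wells; lower values mean less growth of the strain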
# experimental conditions: S. cerevisiae deletion strains, growth OD, locus YNL067W, strain RPL9B, hits give low values
Hit rate of the full screen: of about 5,500 compounds, about 2,000 (36%) were called active. Not shown: some 18% with an inconclusive outcome. The list shows a part of the results.
# normalized growth listing for each entry below
property: normalized growth

- C[C@@H]1CC[C@@]2(OC1)OC1CC3C4CC=C5C[C@@H](O)CC[C@]5(C)C4CC[C@]3(C)C1[C@@H]2C (stereo partly specified): 0.973
- Oc1cc2c(cc1O)C1c3ccc(O)c(O)c3OCC1(O)C2 (stereo unspecified): 0.931
- Oc1ccc2c(c1)OCC1(O)Cc3cc(O)c(O)cc3C21 (stereo unspecified): 0.959
- CNC(=O)Oc1cccc2c1OC(C)(C)O2: 1.02
- COc1ccc2c(c1C(C)C)CCC1C(C)(C)C(=O)CCC21C (stereo unspecified): 1.01
- O=C1C=C2C(=CCOC2O)O1 (stereo unspecified): 0.689
- COc1ccc2c(c1)CCC1C2CC[C@@]2(C)C1CC[C@@H]2O (stereo partly specified): 0.791
- C[C@]12CCC3c4ccc(O)cc4CCC3C1C[C@@H](O)[C@@H]2O (stereo partly specified): 0.994
- CC12CCC3c4ccc(OCc5ccccc5)cc4CCC3C1C[C@@H](O)[C@@H]2O (stereo partly specified): 0.093
- CC(=O)Oc1ccc2c(c1OC(C)=O)OCC1(O)Cc3c(cc(OC(C)=O)c(OC(C)=O)c3OC(C)=O)C21 (stereo unspecified): 1.02
- COc1ccc2c(c1)CCC1C2CCC2(C)C1C[C@@H](O)C2O (stereo partly specified): 0.979

###

# assay protocol: chemical genetic growth profiling, strain panel (AID 1159580);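 note: tested at 20 µM; growth read once vehicle control cultures reached saturation at 30 °C; 1 = growth at the plate median or of vehicle wells; lower values mean less growth of the strain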
# experimental conditions: S. cerevisiae deletion strains, growth OD, locus YOR290C, strain snf2, hits give low values
Out of some 5,500 compounds screened, about 2,000 (36%) were called active. Another 18% or so got no clear call; they are omitted. The list shows a part of the results.
property: normalized growth

- CCCC(C)(COC(N)=O)COC(=O)NC(C)C (stereo not given): 0.982
- C[C@@H]([C@H](O)c1ccccc1)N(C)C: 1.01
- COc1c2ccoc2cc2oc(=O)ccc12: 0.877
- CC1(C)C=CC(=O)[C@@]2(C)C1CC(=O)[C@]1(C)C2CC[C@@]2(C)[C@H](c3ccoc3)OC(=O)C3OC321 (stereo not given in full): 0.974
- CC[n+]1c(-c2ccccc2)c2cc(N)ccc2c2ccc(N)cc21: 0.937
- CC1(C)C2CC(=O)[C@]3(C)C(CC[C@@]4(C)[C@H](c5ccoc5)OC(=O)[C@H]5O[C@]543)[C@@]2(C)C(=O)C[C@H]1O (stereo not given in full): 1.01
- CC1(C)C(=O)C=C[C@@]2(C)C1C[C@@H](O)[C@]1(C)C2CC[C@@]2(C)[C@H](c3ccoc3)OC(=O)[C@H]3O[C@]321 (stereo not given in full): 1
- O=c1ccc2c(O)c3ccoc3cc2o1: 0.991
- COc1ccc2ccc(=O)oc2c1: 0.995
- COc1cc2occc2c2oc(=O)ccc12: 0.963
